The listing below reports pIC50 for compounds tested on Dipeptidyl peptidase 4 (Homo sapiens).
Sequence (P27487 whole entry): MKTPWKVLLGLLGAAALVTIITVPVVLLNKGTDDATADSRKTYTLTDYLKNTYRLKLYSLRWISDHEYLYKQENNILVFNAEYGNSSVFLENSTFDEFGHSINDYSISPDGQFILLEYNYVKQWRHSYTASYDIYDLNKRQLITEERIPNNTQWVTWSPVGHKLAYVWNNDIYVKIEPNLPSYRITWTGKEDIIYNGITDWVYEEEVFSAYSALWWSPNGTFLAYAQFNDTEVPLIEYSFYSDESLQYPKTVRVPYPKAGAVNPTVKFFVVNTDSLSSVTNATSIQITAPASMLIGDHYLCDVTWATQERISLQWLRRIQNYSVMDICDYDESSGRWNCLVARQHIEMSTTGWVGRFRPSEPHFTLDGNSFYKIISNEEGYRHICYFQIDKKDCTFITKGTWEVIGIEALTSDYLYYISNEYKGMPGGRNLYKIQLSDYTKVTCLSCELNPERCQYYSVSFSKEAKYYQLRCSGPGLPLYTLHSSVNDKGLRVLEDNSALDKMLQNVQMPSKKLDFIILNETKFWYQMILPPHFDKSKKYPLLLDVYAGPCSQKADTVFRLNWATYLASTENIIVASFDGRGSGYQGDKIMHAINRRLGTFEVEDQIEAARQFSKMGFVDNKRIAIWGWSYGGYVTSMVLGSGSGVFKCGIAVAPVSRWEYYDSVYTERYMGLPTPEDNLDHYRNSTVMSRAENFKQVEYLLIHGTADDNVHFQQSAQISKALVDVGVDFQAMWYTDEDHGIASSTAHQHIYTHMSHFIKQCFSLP
Please report pIC50 as the negative decimal logarithm of the molar concentration, giving only the number.

Use these answered entries as a reference point.
[
  {
    "COMPOUND": "O=C(CN1CCCC1C(=O)N1CCC(F)C1)N1CCN(c2ncccn2)CC1 (centres undefined)",
    "ENDPOINT NAME": "pIC50",
    "RESULT": 6.37
  },
  {
    "COMPOUND": "CN(C)CCN1CCCC1C(=O)N1CCC(F)C1 (centres undefined)",
    "ENDPOINT NAME": "pIC50",
    "RESULT": 4.52
  },
  {
    "COMPOUND": "O=C(C1CCCN1)N1CCC(F)C1 (centres undefined)",
    "ENDPOINT NAME": "pIC50",
    "RESULT": 5.37
  }
]

Continue with the next compound.
Challenge: Specify measured pIC50 for O=C(CN1CCCC1C(=O)N1CCC(F)C1)N1CCCCC1 (centres undefined) .
Response given: 5.10

// data source = BindingDB's records for doi:10.1111/cbdd.12142
